system: NCI-H3255; assay: cells; assay type: functional, cell-based; conditions: Homo sapiens, NCI-H3255, 72 h
Description: Growth inhibition of human NCI-H3255 cells harbouring EGFR L858R mutant incubated for 72 hrs by CCK8 assay
MEASURED_QUANTITY: pIC50
Convention used: pIC50 is expressed as -log10 of the molar concentration.

COMPOUND	NUMERIC_RESULT
C#Cc1cccc(Oc2ncnc3ccc(OCc4ccc(S(=O)(=O)NC)cc4)cc23)c1	5.11

Read the next record carefully.
The reported pIC50 of the compound C#Cc1cccc(Oc2ncnc3ccc(OCc4ccc(S(=O)(=O)N(C)C#C)cc4)cc23)c1 was 5.72
